tested on: HCT-116 colon; assay: NCI tumour cell line growth inhibition, 48 h

- Compound: "O=P(O)(CN1CCN(CP(=O)(O)c2ccccc2)CCN(CP(=O)(O)c2ccccc2)CC1)c1ccccc1"
  TGI: "> 100 µM"
- Compound: "COC(=O)C1C=CCON2CCc3c(n(S(=O)(=O)c4ccccc4)c4ccccc34)C12 (stereo not given)"
  TGI: "> 80.7 µM"
- Compound: "COc1cc(C2c3c(ccc4ccccc34)C(=O)C3CCC(=O)N32)cc(OC)c1O (stereo not given)"
  TGI: "> 25 µM"
- Compound: "Cc1ccc(N2C(N)=C(C#N)C(C#N)(C#N)C2c2ccccc2)cc1 (stereo not given)"
  TGI: "14.4 µM"
- Compound: "CCCCCCCCCCCCCB(O)O"
  TGI: "> 100 µM"
- Compound: "CCCNC(=O)N(C)C(=O)N1N=C(c2ccccc2)C1c1ccccc1 (stereo not given)"
  TGI: "> 100 µM"
- Compound: "O=C1C=CC2(C=C1)C[C@H](NC(=O)OCc1ccccc1)C(=O)O2"
  TGI: "40.3 µM"
- Compound: "CCOC(=O)C1(Br)S(=O)(=O)OCCOS1(=O)=O"
  TGI: "> 100 µM"
- Compound: "COc1cc(/C=C2\\C[C@H]3[C@@H]4CC=C5C[C@@H](OC(C)=O)CC[C@]5(C)[C@H]4CC[C@]3(C)[C@H]2OC(C)=O)ccc1OCCN1CCCC1"
  TGI: "30.7 µM"
- Compound: "C[Si](C)(C)C(Sc1ccccc1)(Sc1ccccc1)Sc1ccccc1"
  TGI: "> 100 µM"

---

Here, each record is paired with measured TGI data.
system: NCI-H460 lung; test: NCI tumour cell line growth inhibition, 48 h

- Compound: "CN1CCN(Cc2cc(NC(=O)c3cccc(C#Cc4cccc5[nH]nc(N)c45)c3)cc(C(F)(F)F)c2)CC1"
  Measurement qualifier: "="
  TGI [µM]: 3.06
- Compound: "Cn1c2ccccc2c2c(=O)n(CCCC(=O)OC(=NC3CCCCC3)NC3CCCCC3)c3c(-c4ccccc4)nnn3c21"
  Measurement qualifier: ">"
  TGI [µM]: 100
- Compound: "CC1=C([Se]CC(OC(=O)[C@@H](CO)NC(=O)OC(C)(C)C)C(=O)NCCCCCC(=O)OCc2ccccc2)C(=O)c2ccccc2C1=O (some centres undefined)"
  Measurement qualifier: "="
  TGI [µM]: 1.61
- Compound: "FC(F)(F)c1cc(Nc2ccc3cc(OCCCN4CCOCC4)ccc3n2)ccc1Cl"
  Measurement qualifier: "="
  TGI [µM]: 3.42
- Compound: "S=C=NC1CCC(c2cc3ccccc3s2)(N2CCCCC2)CC1 (centres undefined)"
  Measurement qualifier: "="
  TGI [µM]: 3.54
- Compound: "CCN1CCC(O)(c2ccc(O)cc2)C(C(=O)c2ccc(O)cc2)C1 (centres undefined)"
  Measurement qualifier: ">"
  TGI [µM]: 100
- Compound: "CCCCCCCCC/C=C1/CC(CO)(COC(=O)c2ccccc2)OC1=O (centres undefined)"
  Measurement qualifier: "="
  TGI [µM]: 22
- Compound: "O=C1O/C(=C\\c2ccc(O)cc2)C(c2ccc(O)c(Cl)c2)=C1Cl"
  Measurement qualifier: ">"
  TGI [µM]: 100
- Compound: "CCCCC(=O)Nc1ccc2c(C)cc(-c3ccc(-c4cc(-c5ccc(C)cc5)cc(-c5ccc(-c6cc(C)c7ccc(NC(=O)CCCC)nc7n6)cc5)n4)cc3)nc2n1"
  Measurement qualifier: ">"
  TGI [µM]: 100
- Compound: "C[CH2][Sn]([CH2]C)([O]C(=O)c1ccc(OC)c(OC)c1OC)[O]C(=O)c1ccc(OC)c(OC)c1OC"
  Measurement qualifier: ">"
  TGI [µM]: 100
- Compound: "COCc1c(-c2ccc(NC(=O)Nc3cc(C(F)(F)F)ccc3F)c(F)c2)c2c(N)ncnn2c1CN1CCOCC1"
  Measurement qualifier: "="
  TGI [µM]: 9.74
- Compound: "CC1=NN(c2nc(N)nc(/C(C#N)=C\\c3cccc([N+](=O)[O-])c3)n2)C(C)(C)C1"
  Measurement qualifier: "="
  TGI [µM]: 19.7
- Compound: "CC(C)CCCC(C)[C@H]1CC[C@H]2N=C(NCc3ccccc3)CCC[C@]12C (some centres undefined)"
  Measurement qualifier: "="
  TGI [µM]: 3.34
- Compound: "C/C(=N/N=C(N)N)c1ccc(NC(=O)Nc2ccc(/C(C)=N/N=C(N)N)cc2)cc1"
  Measurement qualifier: "="
  TGI [µM]: 48.8
- Compound: "Cc1cc(=O)oc2cc(OC/C=C3\\CCC(=O)O3)ccc12"
  Measurement qualifier: ">"
  TGI [µM]: 62.7
- Compound: "C#Cc1cccc(NC(=O)c2ccc(NC(=O)CCl)cc2)c1"
  Measurement qualifier: ">"
  TGI [µM]: 82.5
- Compound: "CC1(C)N=C(N)N=C(N)N1c1cccc(Br)c1"
  Measurement qualifier: ">"
  TGI [µM]: 100
- Compound: "CCN(Cc1ccc(F)cc1)c1ccc(CO)c(OC)c1"
  Measurement qualifier: ">"
  TGI [µM]: 100
- Compound: "COC[C@H](C)N=CN1CCc2ccccc2C1(Cc1ccccc1)Cc1ccccc1"
  Measurement qualifier: "="
  TGI [µM]: 25.9
- Compound: "O=c1c2c(F)c(F)c(F)c(F)c2sc2nccn12"
  Measurement qualifier: "="
  TGI [µM]: 27.3
- Compound: "COC1/C=C/C(C)C(C(C)C(OC)C(C)CCC(=O)C(C)C(CC(=O)O)OC)OC(=O)/C=C/C=C(\\C)CC(OC)CC2=CC(=O)O[C@H](C2)C(C)C(OC)CC(OC)/C=C/C(C)C(OC)C1 (some centres undefined)"
  Measurement qualifier: ">"
  TGI [µM]: 4.35
- Compound: "CCCCCCCC(=O)[O][Hg][CH2]C1COC([CH2][Hg][O]C(=O)CCCCCCC)CO1 (centres undefined)"
  Measurement qualifier: "="
  TGI [µM]: 37.4
- Compound: "C=CCCCCCCCCC(=O)O"
  Measurement qualifier: "="
  TGI [µM]: 191
- Compound: "O=c1c2cc(I)ccc2nc(-c2cccs2)n1/N=C/c1ccccc1"
  Measurement qualifier: ">"
  TGI [µM]: 100
- Compound: "O=C1C2C3C=CC(C2C(=O)N1CN1CCSCC1)C1C2C(=O)N(CN4CCSCC4)C(=O)C2C31 (centres undefined)"
  Measurement qualifier: ">"
  TGI [µM]: 57.3
- Compound: "CC(=O)OCC1OC(n2nc(Cc3ccccc3)c(=S)[nH]c2=S)C(OC(C)=O)C(OC(C)=O)C1OC(C)=O (centres undefined)"
  Measurement qualifier: ">"
  TGI [µM]: 100
- Compound: "COc1cccc(Nc2nccc(-c3cnn4ncccc34)n2)c1"
  Measurement qualifier: ">"
  TGI [µM]: 25
- Compound: "O=C1NC(c2cccc(OCc3ccccc3)c2)Nc2ccccc21 (centres undefined)"
  Measurement qualifier: "="
  TGI [µM]: 22.9
- Compound: "CN(CCCn1ccnc1[N+](=O)[O-])CCCn1ccnc1[N+](=O)[O-]"
  Measurement qualifier: ">"
  TGI [µM]: 100
- Compound: "CCCCc1c2c(c(C)c3c1C(=O)OC3)Oc1ccccc1O2"
  Measurement qualifier: "="
  TGI [µM]: 18.2
- Compound: "Cc1ccc(-c2cc(-c3ccco3)c(C#N)c(=O)n2C2OC(CO)C(O)C(O)C2O)cc1 (centres undefined)"
  Measurement qualifier: ">"
  TGI [µM]: 100
- Compound: "C=CCc1c(O)c(C(=O)/C=C/c2ccccc2)c(OC)c2ccoc12"
  Measurement qualifier: "="
  TGI [µM]: 10.7
- Compound: "CCOC(=O)c1cc(C2CCN(Cc3ccccc3)C2=S)c(C(=O)C=[N+]=[N-])[nH]1 (centres undefined)"
  Measurement qualifier: "="
  TGI [µM]: 64.1
- Compound: "O=C1/C(=C/c2ccc(Cl)cc2)CSC/C1=C\\c1ccc(Cl)cc1"
  Measurement qualifier: "="
  TGI [µM]: 30.5
- Compound: "O=C(O)Cc1cccc2c(=O)c3cccc([N+](=O)[O-])c3oc12"
  Measurement qualifier: ">"
  TGI [µM]: 100
- Compound: "[CH3][Sn]([CH3])([CH3])[O][N+](=O)[O-]"
  Measurement qualifier: ">"
  TGI [µM]: 10
- Compound: "CN1CCN(Cc2ccc(NC(=O)c3cncc(C#Cc4cnc(N)c5cnccc45)c3)cc2C(F)(F)F)CC1"
  Measurement qualifier: "="
  TGI [µM]: 3.31
- Compound: "Cn1c(N=P(c2ccccc2)(c2ccccc2)c2ccccc2)c([N+](=O)[O-])c(=O)n(C)c1=O"
  Measurement qualifier: ">"
  TGI [µM]: 100
- Compound: "COC(=O)/C(C#N)=C(\\N)c1c(C)c2ccccc2oc1=N"
  Measurement qualifier: ">"
  TGI [µM]: 100
